- experimentSummary: Restrictive medium S. cerevisiae growth inhibition, OD615, pilot screen of yeast lifespan reduction project, restrictive growth control (AID 706);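 note: modified DeaD lifespan yeast strain shifted to restrictive glucose medium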
- experimentalParameters: OD615, 48 h, at 10 µM, stronger effect = higher value
reportedEndpoint: growth inhibition (%)
Answer with a number only, understood to be in %.

- CCc1ccc(NS(=O)(=O)c2cc(OC)ccc2OC)cc1: -9.52
- Cc1ccc(OCC(=O)n2nc(C)cc2C)c(Br)c1: -0.465
- CCOC(=O)N1CCC(NC(=O)c2ccc(CS(=O)(=O)c3ccccc3C)o2)CC1: -19.7
- O=C(Cn1c(=O)oc2cc(S(=O)(=O)N3CCc4ccccc43)ccc21)NC1CCCC1: 2.94

Consider now this further molecule.
Requested field: growth inhibition. Item: CCOc1ccccc1C(=O)Nc1nnc(C(C)C)s1
-2.61
